System: merlin-null Schwann cells
Method summary: Orthogonal ATP-based luminescence cell viability assay (CellTiter-GLO)
Run conditions: 10 uM; average of two assays with one cell line at P18-23
Structures can show the parent of a compound that is named as a salt.
Measurement label: Orthogonal Assay Average of two, cell viability

These solved cases illustrate the format of a correct answer.
{"columns": ["Molecule", "Reported measurement"],
 "data": [
  ["CCN(CC)CCCCNc1ncc2cc(-c3c(Cl)cccc3Cl)c(NC(=O)NC(C)(C)C)nc2n1", "62.4 % of DMSO Control"],
  ["CCn1cnc2c(Nc3cccc(Cl)c3)nc(N[C@@H]3CCCC[C@@H]3N)nc21 (relative stereo) [CGP-74514A hydrochloride]", "16.1 % of DMSO Control"],
  ["COc1ccc(Br)cc1S(=O)(=O)NC(=O)/C=C/c1ccccc1Cc1ccc2ccccc2c1", "37.6 % of DMSO Control"],
  ["CC[n+]1c(C=CC=C2N(C)c3ccccc3C2(C)C)sc2ccccc21.[I-] [AC-93253 iodide]", "24.3 % of DMSO Control"],
  ["O=C(O)c1ccc2ccccc2c1O.OCc1cc(C(O)CNCCCCCCOCCCCc2ccccc2)ccc1O (centres unmarked) [Salmeterol xinafoate, salmeterol xinafoate]", "73.7 % of DMSO Control"],
  ["N#C/C(=C\\c1ccc(-c2cc(Cl)ccc2Cl)o1)C(=O)Nc1cccc2ncccc12", "78.6 % of DMSO Control"],
  ["Ic1ccccc1CNC1C2CCN(CC2)C1C(c1ccccc1)c1ccccc1 [L-703,606 oxalate salt hydrate]", "40.6 % of DMSO Control"],
  ["CN1CCN(CCCN2c3ccccc3Sc3ccc(C(F)(F)F)cc32)CC1 [Trifluoperazine dihydrochloride, trifluoperazine]", "47 % of DMSO Control"]
]}

GET /values?readout=Orthogonal Assay Average of two, cell viability&system=merlin-null Schwann cells&item= "O=C1NC(=O)/C(=C/c2ccc3nccnc3c2)S1" 40.1 % of DMSO Control

Please answer likewise for "O=C1Nc2ccc(I)cc2C1=Cc1cc(Br)c(O)c(Br)c1" 36.4 % of DMSO Control

Please answer likewise for CSc1ccc2c(c1)N(CCC1CCCCN1C)c1ccccc1S2 (centres unmarked) [Thioridazine hydrochloride, thioridazine] 67.9 % of DMSO Control

Please answer likewise for COCC(=O)O[C@]1(CCN(C)CCCc2nc3ccccc3[nH]2)CCc2cc(F)ccc2[C@@H]1C(C)C [Mibefradil dihydrochloride hydrate, mibefradil] 53.3 % of DMSO Control

Please answer likewise for "C[C@@]12C(=O)OC(=O)[C@]1(C)[C@H]1CC[C@@H]2O1" 35.2 % of DMSO Control

Please answer likewise for "CC[C@H](C)C(=O)O[C@H]1CCC=C2C=C[C@H](C)[C@H](CC[C@@H]3C[C@@H](O)CC(=O)O3)[C@H]21" 85.1 % of DMSO Control
